- Study system: Kif15-N700 (Homo sapiens)
- Sequence (Q9NS87 1-700 limits assumed): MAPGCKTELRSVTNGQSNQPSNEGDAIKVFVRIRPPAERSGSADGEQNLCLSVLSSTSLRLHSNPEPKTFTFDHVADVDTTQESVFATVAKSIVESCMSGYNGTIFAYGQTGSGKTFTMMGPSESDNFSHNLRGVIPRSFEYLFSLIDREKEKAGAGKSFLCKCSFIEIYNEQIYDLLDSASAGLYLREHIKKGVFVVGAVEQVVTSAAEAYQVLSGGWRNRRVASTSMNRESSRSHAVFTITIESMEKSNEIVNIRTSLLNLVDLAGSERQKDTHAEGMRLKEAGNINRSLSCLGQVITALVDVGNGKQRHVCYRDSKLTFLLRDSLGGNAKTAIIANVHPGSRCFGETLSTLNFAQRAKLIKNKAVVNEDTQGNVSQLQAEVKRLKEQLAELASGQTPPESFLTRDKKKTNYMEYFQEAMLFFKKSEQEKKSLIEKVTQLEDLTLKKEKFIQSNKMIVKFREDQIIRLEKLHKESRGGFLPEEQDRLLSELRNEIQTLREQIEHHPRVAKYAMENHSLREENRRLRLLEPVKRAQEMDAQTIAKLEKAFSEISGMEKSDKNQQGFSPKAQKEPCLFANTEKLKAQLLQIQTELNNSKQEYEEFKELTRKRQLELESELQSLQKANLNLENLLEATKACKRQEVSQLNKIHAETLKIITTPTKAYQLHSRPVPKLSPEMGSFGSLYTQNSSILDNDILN
- Method summary: MT gliding assay with Kif15-N700
- Assay type: biochemical
- Settings: 750 nM
Measurement label: Kif15 MT gliding inhibition (SAR, in words)

Form: molecule = COc1c(Br)cc(/C=C2\C(=O)Nc3ccc(C(=O)c4ccco4)cc32)cc1Br [Compound 10] ; Kif15 MT gliding inhibition (SAR, in words) = abolished activity

Entry under test: O=C1Nc2ccc(C(=O)c3ccco3)cc2/C1=C/c1cc(F)c(O)c(Br)c1 [Compound 6] . Its Kif15 MT gliding inhibition (SAR, in words) was intermediary inhibition

Kif15 MT gliding inhibition (SAR, in words) reading for O=C1Nc2ccc(C(=O)c3ccco3)cc2/C1=C/c1cc(Br)cc(Br)c1 [Compound 8] : abolished activity

Entry O=C1Nc2ccc(C(=O)c3ccco3)cc2/C1=C/c1cc(Cl)c(O)c(Br)c1 [Compound 7] ; Kif15 MT gliding inhibition (SAR, in words) = intermediary inhibition
